target: Acetylcholinesterase (Electrophorus electricus, UniProt O42275); test: Inhibition of electric eel AChE using acetylthiocholine iodide as substrate preincubated for 15 mins followed by substrate addition measured after 15 mins by Ellman's method
Sequence (O42275 whole entry): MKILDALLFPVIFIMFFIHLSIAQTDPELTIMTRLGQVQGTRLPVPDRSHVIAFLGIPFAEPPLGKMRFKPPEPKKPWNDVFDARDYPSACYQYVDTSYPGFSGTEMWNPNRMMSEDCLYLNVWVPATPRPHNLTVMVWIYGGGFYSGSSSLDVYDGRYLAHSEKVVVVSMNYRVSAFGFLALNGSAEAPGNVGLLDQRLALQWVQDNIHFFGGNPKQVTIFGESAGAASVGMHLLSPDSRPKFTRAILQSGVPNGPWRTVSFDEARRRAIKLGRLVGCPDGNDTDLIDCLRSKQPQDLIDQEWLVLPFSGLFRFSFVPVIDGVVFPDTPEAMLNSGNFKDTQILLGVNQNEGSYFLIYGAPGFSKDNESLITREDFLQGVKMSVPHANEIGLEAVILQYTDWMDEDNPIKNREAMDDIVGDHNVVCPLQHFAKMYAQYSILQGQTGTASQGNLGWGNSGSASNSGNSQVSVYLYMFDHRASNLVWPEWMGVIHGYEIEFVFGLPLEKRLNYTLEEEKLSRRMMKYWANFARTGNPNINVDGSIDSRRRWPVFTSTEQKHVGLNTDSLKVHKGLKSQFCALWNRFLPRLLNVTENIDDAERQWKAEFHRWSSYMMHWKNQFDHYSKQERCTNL
recorded.metric: pIC50
In plain terms, pIC50 is the concentration in mol/L turned into minus its base-10 logarithm.

// query I would be grateful if you could share the reported pIC50 for O=C(NCc1cc[n+](Cc2cccc(F)c2)cc1)c1cc2ccccc2oc1=O .
// result 4.99

----------
target: UniProtKB P81908; experiment: Inhibition of equine serum BChE using butyrylthiocholine iodide as substrate preincubated for 10 mins followed by substrate addition measured for 6 mins by Ellman's method
Sequence (P81908 whole entry): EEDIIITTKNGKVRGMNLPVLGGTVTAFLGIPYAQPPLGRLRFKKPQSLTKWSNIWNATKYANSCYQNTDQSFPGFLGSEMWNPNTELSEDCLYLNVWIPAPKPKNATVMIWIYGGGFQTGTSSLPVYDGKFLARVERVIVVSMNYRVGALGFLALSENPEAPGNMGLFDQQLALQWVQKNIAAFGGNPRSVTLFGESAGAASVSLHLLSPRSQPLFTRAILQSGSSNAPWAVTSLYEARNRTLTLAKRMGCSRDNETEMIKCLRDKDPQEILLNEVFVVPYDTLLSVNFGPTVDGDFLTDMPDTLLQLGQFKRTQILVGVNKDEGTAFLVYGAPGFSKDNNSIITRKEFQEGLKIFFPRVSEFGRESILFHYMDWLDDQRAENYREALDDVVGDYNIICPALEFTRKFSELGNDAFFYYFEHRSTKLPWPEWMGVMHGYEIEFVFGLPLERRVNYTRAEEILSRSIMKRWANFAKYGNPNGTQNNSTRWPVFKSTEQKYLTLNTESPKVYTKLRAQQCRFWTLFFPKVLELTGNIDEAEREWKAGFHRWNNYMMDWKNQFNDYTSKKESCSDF
recorded.metric: IC50 (µM)
Express it in µM; write the number only.

// query I would be grateful if you could share the reported IC50 for O=C1Nc2ccccc2/C1=C\c1cc[n+](Cc2ccccc2Cl)cc1 .
// result 1370

// data source = ChEMBL document CHEMBL4152284
